Molecular target: 17-beta-hydroxysteroid dehydrogenase type 3 (Rattus norvegicus)
Sequence (whole entry): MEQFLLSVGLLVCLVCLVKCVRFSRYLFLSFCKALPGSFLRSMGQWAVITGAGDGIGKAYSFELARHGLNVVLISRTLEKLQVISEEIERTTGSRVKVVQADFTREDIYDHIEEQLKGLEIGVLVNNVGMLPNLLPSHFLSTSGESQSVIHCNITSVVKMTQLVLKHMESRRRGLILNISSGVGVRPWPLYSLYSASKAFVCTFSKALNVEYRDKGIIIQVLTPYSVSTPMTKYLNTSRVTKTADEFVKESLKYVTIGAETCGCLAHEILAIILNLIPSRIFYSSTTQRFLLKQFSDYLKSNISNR
Test: Inhibition of 17beta-HSD3 in rat testes microsomes using [14C]-4-androstene-3,17-dione as substrate measured based on 18% of initial enzyme transformation at 0.1 uM after 2 hrs
Conditions: Testis
Assign inhibition to each entry below.
One number for each entry, in %.

CC(C)C[C@@H]1C(=O)O[C@@]2(CC[C@@]3(C)[C@@H](CC[C@@H]4[C@@H]3CC[C@]3(C)C(=O)CC[C@@H]43)C2)CN1Cc1ccccc1 | 45.9
C#CCN1CC(=O)O[C@@]2(CC[C@@]3(C)[C@@H](CC[C@@H]4[C@@H]3CC[C@]3(C)C(=O)CC[C@@H]43)C2)C1 | 34.1
COC(=O)[C@H](Cc1ccccc1)N1C[C@]2(CC[C@@]3(C)[C@@H](CC[C@@H]4[C@@H]3CC[C@]3(C)C(=O)CC[C@@H]43)C2)OC1=O | 48.3

In the following, a different compound is considered.
Value wanted: inhibition (17-beta-hydroxysteroid dehydrogenase type 3 (Rattus norvegicus)) of entry C#CCN1CC2(CCCCC2)OC(=O)[C@@H]1Cc1ccccc1
0

###

Assign inhibition to each entry below.
Biological target: 17-beta-hydroxysteroid dehydrogenase type 3 (Rattus norvegicus)
Sequence (whole entry): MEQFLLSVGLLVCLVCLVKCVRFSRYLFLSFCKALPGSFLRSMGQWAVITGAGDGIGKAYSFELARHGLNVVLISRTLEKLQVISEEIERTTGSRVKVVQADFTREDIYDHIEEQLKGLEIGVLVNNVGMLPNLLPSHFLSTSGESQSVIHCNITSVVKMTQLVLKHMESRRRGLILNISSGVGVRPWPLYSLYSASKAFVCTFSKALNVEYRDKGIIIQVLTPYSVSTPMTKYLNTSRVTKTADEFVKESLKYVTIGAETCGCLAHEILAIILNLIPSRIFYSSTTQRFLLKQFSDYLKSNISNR
Test: Inhibition of 17beta-HSD3 in rat testes microsomes using [14C]-4-androstene-3,17-dione as substrate measured based on 18% of initial enzyme transformation at 0.01 uM after 2 hrs
Conditions: Testis
One number for each entry, in %.

Observe how each entry below is paired with its result.
C[C@]12CC[C@@]3(C[C@@H]1CC[C@@H]1[C@@H]2CC[C@]2(C)C(=O)CC[C@@H]12)CN(S(=O)(=O)c1ccc(C(F)(F)F)cc1)CC(=O)O3 | 32.9
C[C@]12CC[C@@]3(C[C@@H]1CC[C@@H]1[C@@H]2CC[C@]2(C)C(=O)CC[C@@H]12)CN(Cc1cc(C(F)(F)F)cc(C(F)(F)F)c1)CC(=O)O3 | 15.1

Consider the compound C[C@]12CC[C@@]3(C[C@@H]1CC[C@@H]1[C@@H]2CC[C@]2(C)C(=O)CC[C@@H]12)CN(Cc1cn(Cc2ccccc2)nn1)CC(=O)O3 and give its measured inhibition.
5.1
